// note: pKd values for WD repeat-containing protein 5 (Homo sapiens) were reported in different studies
pKd: −log10 of the molar value.
readout: pKd

molecule	comparison.sign	readout.number
COc1ccc(Br)cc1S(=O)(=O)Nc1ccc(Cl)cc1O	=	4.56
CN1CCN(c2ccc([N+](=O)[O-])cc2NC(=O)c2cccc3ccccc23)CC1	=	6.15
CN1CCN(c2ccc([N+](=O)[O-])cc2NC(=O)C2CCCCC2)CC1	<	5.00
CN1CCN(c2ccc(C(=O)O)cc2NC(=O)c2ccccc2Cl)CC1	<	5.00
CN(C)CCN(C)c1ccc([N+](=O)[O-])cc1NC(=O)c1ccccc1Cl	<	4.70
CN1CCN(c2ccc([N+](=O)[O-])cc2NC(=O)c2cccc3ncccc23)CC1	=	5.82
CS(=O)(=O)c1cc(C2(C#N)CCC2)cc(NS(=O)(=O)c2cc(Br)cc3cccnc23)c1O	=	6.57
Cc1c(F)c(N)cc(C(=O)Nc2cc(-c3ccc(NC(=O)C4CCNCC4)cc3)ccc2N2CCN(C)CC2)c1Cl	=	8.12
NC1CCN(c2ccc([N+](=O)[O-])cc2NC(=O)c2ccccc2Cl)C1 (stereo not given)	<	4.70
NC1CCN(c2ccc([N+](=O)[O-])cc2NC(=O)c2ccccc2Cl)CC1	<	4.70
